# Test system: P-Akt (S473)
# runDescription: Cell based AlphaLISA assay, inhibition of P-Akt (S473) in MDA-MB-468 cells (mTORC2 substrate)
# protocolConditions: Homo sapiens, 4 h, AlphaLisa, two to four hours at 37° C., read-out: pIC50 for Inhibition of mTORC1 and mTORC2 Substrate Phosphorylation p-AKT1/2/3-(S473) (converted)
recordedEndpoint: IC50

Would you mind giving IC50 for every compound in the list below?
1. CO[C@H]1C[C@@H]2CC[C@@H](C)[C@@](O)(O2)C(=O)C(=O)N2CCCC[C@H]2C(=O)O[C@H]([C@H](C)C[C@@H]2CC[C@@H](OC(=O)N3CCc4nc(N5CCN(CCOCCN6CCN(c7ncc(C(=O)N8CCc9cc(Cn%10nc(-c%11ccc%12[nH]ccc%12c%11)c%11c(N)ncnc%11%10)ccc9C8)cn7)CC6)CC5)ncc4C3)[C@H](OC)C2)CC(=O)[C@H](C)/C=C(\C)[C@@H](O)[C@@H](OC)C(=O)[C@H](C)C[C@H](C)/C=C/C=C/C=C/1C
2. CO[C@H]1C[C@@H]2CC[C@@H](C)[C@@](O)(O2)C(=O)C(=O)N2CCCC[C@H]2C(=O)O[C@H]([C@H](C)C[C@@H]2CC[C@@H](OC(=O)NCc3cnc(N4CCN(C(=O)CCOCCN5CCN(c6ncc(C(=O)NCCS(=O)(=O)c7ccc(C(=O)N8CCOc9ccc(-c%10ccc(N)nc%10)cc9C8)c(C)c7F)cn6)CC5)CC4)nc3)[C@H](OC)C2)C[C@@H](O)[C@H](C)/C=C(\C)[C@@H](O)[C@@H](OC)C(=O)[C@H](C)C[C@H](C)/C=C/C=C/C=C/1C
3. CO[C@H]1C[C@@H]2CC[C@@H](C)[C@@](O)(O2)C(=O)C(=O)N2CCCC[C@H]2C(=O)O[C@H]([C@H](C)C[C@@H]2CC[C@@H](OC(=O)NCc3cnc(N4CCN(CCOCCOCCOCCOCCC(=O)NCCCCn5nc(-c6ccc7oc(N)nc7c6)c6c(N)ncnc65)CC4)nc3)[C@H](OC)C2)C[C@@H](OC)[C@H](C)/C=C(\C)[C@@H](O)[C@@H](OC)C(=O)[C@H](C)C[C@H](C)/C=C/C=C/C=C/1C
4. CO[C@H]1C[C@@H]2CC[C@@H](C)[C@@](O)(O2)C(=O)C(=O)N2CCCC[C@H]2C(=O)O[C@H]([C@H](C)C[C@@H]2CC[C@@H](OC(=O)NCc3cnc(N4CCN(C(=O)CCOCCN5CCN(c6ncc(C(=O)NCCCCn7nc(-c8ccc9oc(N)nc9c8)c8c(N)ncnc87)cn6)CC5)CC4)nc3)[C@H](OC)C2)CC(=O)[C@H](C)/C=C(\C)[C@@H](O)[C@@H](OC)C(=O)[C@H](C)C[C@H](C)/C=C/C=C/C=C/1C
5. CO[C@H]1C[C@@H]2CC[C@@H](C)[C@@](O)(O2)C(=O)C(=O)N2CCCC[C@H]2C(=O)O[C@H]([C@H](C)C[C@@H]2CC[C@@H](OC(=O)NCc3cnc(N4CCN(C(=O)CCOCCN5CCN(c6ncc(C(=O)N7CCc8cc(Cn9nc(-c%10cnc%11[nH]ccc%11c%10)c%10c(N)ncnc%109)ccc8C7)cn6)CC5)CC4)nc3)[C@H](OC)C2)CC(=O)[C@H](C)/C=C(\C)[C@@H](O)[C@@H](OC)C(=O)[C@H](C)C[C@H](C)/C=C/C=C/C=C/1C

["3.16 to 31.6 nM", "3.16 to 31.6 nM", "> 1000 nM", "> 1000 nM", "> 1000 nM"]
